Assay: growth inhibition, MDA-MB-436, cell-based, BGB or cisplatin combos, synergistic combos for chromothripsis tumors (AID 1671458);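 further: cells exposed for 96 hours; 0% = vehicle DMSO and 100% = killing by high DMSO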
Conditions: MDA-MB-436 breast carcinoma growth inhibition, drug combinations; measured here: cisplatin combination; at 0.5 µM; stronger effect = higher value
Non-standard residues stand in square brackets, D forms with d. Residues, ends and D or L forms follow the SMILES beside them. Dolaproine = CO[C@@H]([C@@H]1CCCN1)[C@@H](C)C(=O)O; Dil = CC[C@H](C)[C@H](NC)[C@@H](CC(=O)O)OC; NMeV = CN[C@H](C(=O)O)C(C)C
Readout kind: inhibition (%)
Please state the figure in %; there is no need to write the unit.

// known answers, use as guide
| Compound | Readout kind | Data value |
| --- | --- | --- |
| CC(=O)C1(O)Cc2c(O)c3c(c(O)c2C(OC2CC(N)C(O)C(C)O2)C1)C(=O)c1ccccc1C3=O (stereo not given) | inhibition | 82.9 |
| Cc1cc(C)c(Nc2ccnc(Nc3ccc(C#N)cc3)n2)c(C)c1 | inhibition | -36.7 |
| CC[C@H](C)[C@@H]([C@@H](CC(=O)N1CCC[C@H]1[C@H](OC)[C@@H](C)C(=O)N[C@@H](Cc1ccccc1)C(=O)O)OC)N(C)C(=O)[C@@H](NC(=O)[C@@H](NC)C(C)C)C(C)C (H-[NMeV]V[Dil][Dolaproine]F-OH) | inhibition | 45.4 |

Query: Return inhibition (reported value) for this compound: CC1CNC(=O)NC1=O (stereo not given)
Result: -32

Query: Return inhibition (reported value) for this compound: CC(Oc1cc(-c2cnn(C3CCNCC3)c2)cnc1N)c1c(Cl)ccc(F)c1Cl (stereo not given)
Result: 3.61

Query: Return inhibition (reported value) for this compound: O=C(CCCCCCC(=O)Nc1ccc(I)cc1)NO
Result: -20.6

Query: Return inhibition (reported value) for this compound: CC(C)c1ccc(-c2cc(=O)c3ccccc3o2)cc1
Result: -11.6

Query: Return inhibition (reported value) for this compound: O=c1[nH]c(=S)[nH]c2nc(-c3ccccc3)c(-c3ccccc3)nc12
Result: 0.551

Query: Return inhibition (reported value) for this compound: O=c1cc(-c2ccc(O)cc2)[nH]c(=S)[nH]1
Result: -15.9

Query: Return inhibition (reported value) for this compound: COc1cccc2c1C(=O)c1c(O)c3c(c(O)c1C2=O)CC(O)(C(C)=O)CC3OC1CC(N)C(O)C(C)O1 (stereo not given)
Result: 91.5

----------
Test: growth inhibition, single agents and combos, CRL2098, cell-based, BGB or cisplatin IC20 combos, synergistic combos for chromothripsis tumors (AID 1671454);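 further: cells exposed for 96 h before readout; 0% = vehicle DMSO and 100% = killing by high DMSO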
Settings: CRL2098 osteosarcoma cells, drug combinations, measured here: combination with BGB at IC20, at 0.5 µM, stronger effect = higher value
Readout kind: inhibition (%)
Please state the figure in %; there is no need to write the unit.

// known answers, use as guide
| Compound | Unit info | inhibition |
| --- | --- | --- |
| CC1CNC(=O)NC1=O (stereo unspecified) | % | -71.8 |
| Cn1cnc2[nH]c(=O)[nH]c(=O)c21 | % | -77.5 |
| C=CC1=C(C)C2=CC3=NC(=C(CC(=O)O)C4=NC(=C(C)C4=C(O)O)C=c4[nH]c(c(C)c4CC)=CC1=N2)C(CCC(=O)O)C3C (stereo unspecified) | % | -14.4 |

Query: Return inhibition (reported value) for this compound: C=C(C)C1CCC2(C(=O)O)CCC3(C)C(CCC4C5(C)CCC(O)C(C)(C)C5CCC43C)C12 (stereo unspecified)
Result: -25.6

Query: Return inhibition (reported value) for this compound: C[C@@H]1COCCN1c1cc(C2(S(C)(=O)=O)CC2)nc(-c2cccc3[nH]ccc23)n1
Result: 11.9

Query: Return inhibition (reported value) for this compound: C#CCC(CCCCCC)C(=O)O (stereo unspecified)
Result: 26.1

Query: Return inhibition (reported value) for this compound: CC(C)OC(=O)[C@H](C)NP(=O)(OC[C@H]1O[C@@H](n2ccc(=O)[nH]c2=O)C(C)(F)[C@@H]1O)Oc1ccccc1 (stereo partly specified)
Result: -7.71
